tested-target: acetylcholine receptor
assay-summary: SPR, receptor immobilized on CM5 chip, peptide 10 uM
binders and their reported Binding affinity (RU)
parameter-measured: Binding affinity (RU)

| binder | unit-of-measure | obs-value |
| --- | --- | --- |
| KKVQQR [6mer-1-288] | RU | 148 |
| KRLLCR [6mer-1-281] | RU | 154 |
| RKVQRK [6mer-1-330] | RU | 148 |
| RKWRQK [6mer-1-329] | RU | 123 |
